Test system: A549 cell line
Experiment: In vitro cell proliferation assay (MTT), A549
Assay type: cell-based
Details: Homo sapiens; A549, 72 hr, MTT; read-out: EC50, anti-proliferative activity
pEC50: −log10 of the molar value.
TEST_READOUT: pEC50

COMPOUND	pEC50
CC(=O)c1cc2cc(NC(=O)c3cccc(CNC(=S)c4cccc(C(F)(F)F)c4)c3)cnc2[nH]1 [OR1012]	≤ 6.00
COc1ccccc1C(=O)Nc1ccc(F)c(CNc2cnc3[nH]c(C(C)=O)cc3c2)c1 [OR1063]	≤ 6.00
CC(=O)c1cc2cc(NCc3cc(NC(=O)C4CCC(C(F)(F)F)CC4)ccc3F)cnc2[nH]1 (stereo not shown) [OR1058]	≤ 6.00

Now, please, on to the next compound.
Value lookup for pEC50; key = CC(=O)c1cc2cc(NC(=O)c3cc(NC(=O)c4ccc(CN5CCN(C)CC5)c(C(F)(F)F)c4)ccc3C)cnc2[nH]1 [OR0781]
≤ 6.00

* * *

Target: EGFR (ErbB1) (Homo sapiens)
Construct: purchased Invitrogen
Test: In vitro kinase assay (Z'-LYTE), EGFR (ErbB1)
Format: biochemical
Conditions: read-out: % of inhibition of the kinase compared to the control
TEST_READOUT: inhibition at 0.1 µM

Guide cases for inhibition at 0.1 µM, answers given:
MOLECULE	TARGET_ENTITY	inhibition at 0.1 µM
CC(=O)c1cc2cc(NCc3cc(NC(=O)c4cncc(C(F)(F)F)c4)ccc3C)cnc2[nH]1	EGFR (ErbB1) (Homo sapiens)	< 50%
CC(=O)c1cc2cc(NCc3cccc(NC(=O)c4ccc(CN5CCN(C)CC5)c(C(F)(F)F)c4)c3)cnc2[nH]1	EGFR (ErbB1) (Homo sapiens)	≥ 50%

Fill in the recorded inhibition at 0.1 µM for this molecule, with EGFR (ErbB1) (Homo sapiens) as test system: CC(=O)c1cc2cc(NC(=O)c3cc(NC(=O)c4ccc(CN5CCC(N(C)C)C5)c(C(F)(F)F)c4)ccc3C)cnc2[nH]1 (centres unmarked)
≥ 50%

What do you have for Cc1ccc(NC(=O)c2ccc(CN3CC[C@H](N(C)C)C3)c(C(F)(F)F)c2)cc1CNc1cnc2[nH]c(C(=O)O)cc2c1 ?
≥ 50%

What do we get for CC(=O)c1cc2cc(NCc3cc(NC(=O)c4cncc(C(F)(F)F)c4)ccc3F)cnc2[nH]1 ?
< 50%

What do you get for CC(=O)c1cc2cc(NCc3cc(NC(=O)c4ccc(Cl)c(C(F)(F)F)c4)ccc3C)cnc2[nH]1 ?
< 50%

What do we get for CC(=O)c1cc2cc(NCc3cc(NC(=O)c4ccnc(C)c4)ccc3C)cnc2[nH]1 ?
< 50%

// same read-out, input: CC(=O)c1cc2cc(NCc3cc(NC(=O)c4cc[nH]c4)ccc3C)cnc2[nH]1
< 50%

What would you report for CC(=O)c1cc2cc(NCc3cc(NC(=O)c4cncc(C)c4)ccc3C)cnc2[nH]1 ?
< 50%

Field entry: CC(=O)c1cc2cc(NCc3cc(NC(=O)c4ccc(CN5CCN(C)CC5)c(C(F)(F)F)c4)ccc3C)cnc2[nH]1
≥ 50%

* * *

Molecular target: EGFR (ErbB1) (Homo sapiens, UniProt P00533)
Construct: purchased Invitrogen
Sequence (P00533 25-1210): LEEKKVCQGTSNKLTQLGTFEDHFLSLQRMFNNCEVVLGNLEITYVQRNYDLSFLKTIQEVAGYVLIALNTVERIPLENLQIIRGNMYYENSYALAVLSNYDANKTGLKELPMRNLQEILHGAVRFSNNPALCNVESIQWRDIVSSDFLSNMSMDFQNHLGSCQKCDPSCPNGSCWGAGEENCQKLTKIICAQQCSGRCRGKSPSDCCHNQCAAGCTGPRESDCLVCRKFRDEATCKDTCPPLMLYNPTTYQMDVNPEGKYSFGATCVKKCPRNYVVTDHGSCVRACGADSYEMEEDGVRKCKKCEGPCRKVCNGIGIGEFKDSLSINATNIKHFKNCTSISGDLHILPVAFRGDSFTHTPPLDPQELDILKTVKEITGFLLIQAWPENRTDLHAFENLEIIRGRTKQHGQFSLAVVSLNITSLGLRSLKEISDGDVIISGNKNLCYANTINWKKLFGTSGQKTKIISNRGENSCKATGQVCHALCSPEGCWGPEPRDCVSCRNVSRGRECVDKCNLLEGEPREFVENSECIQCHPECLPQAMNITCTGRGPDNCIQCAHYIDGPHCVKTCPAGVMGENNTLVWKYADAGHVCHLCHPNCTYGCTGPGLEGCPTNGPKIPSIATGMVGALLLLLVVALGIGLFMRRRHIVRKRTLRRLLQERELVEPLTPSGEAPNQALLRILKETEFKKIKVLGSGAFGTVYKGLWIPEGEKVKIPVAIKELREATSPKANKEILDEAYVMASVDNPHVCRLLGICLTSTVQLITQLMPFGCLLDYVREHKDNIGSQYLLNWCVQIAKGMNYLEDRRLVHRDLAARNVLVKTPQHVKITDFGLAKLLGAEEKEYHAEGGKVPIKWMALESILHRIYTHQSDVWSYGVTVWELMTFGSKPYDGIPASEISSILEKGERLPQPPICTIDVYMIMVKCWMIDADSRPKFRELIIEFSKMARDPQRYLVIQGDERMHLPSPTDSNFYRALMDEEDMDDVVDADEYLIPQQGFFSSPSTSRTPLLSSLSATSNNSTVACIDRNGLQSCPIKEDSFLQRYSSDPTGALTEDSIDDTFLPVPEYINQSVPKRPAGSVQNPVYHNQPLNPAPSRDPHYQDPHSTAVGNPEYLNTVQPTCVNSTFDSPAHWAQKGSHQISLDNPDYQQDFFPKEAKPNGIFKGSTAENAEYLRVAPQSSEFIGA
Assay: In vitro kinase assay (Z'-LYTE), EGFR (ErbB1)
Assay type: biochemical
Conditions: read-out: % of inhibition of the kinase compared to the control
TEST_READOUT: inhibition at 0.1 µM

Use these answered entries as a reference point.
COMPOUND	inhibition at 0.1 µM
CC(=O)c1cc2cc(NCc3cc(NC(=O)c4ccc5[nH]nnc5c4)ccc3C)cnc2[nH]1 [OR0979]	< 50%
CC(=O)c1cc2cc(NCc3cc(NS(=O)(=O)c4cccc(C(F)(F)F)c4)ccc3C)cnc2[nH]1 [OR0930]	< 50%
CC(=O)c1cc2cc(NCc3cc(NC(=O)c4ccc(C)c(C(F)(F)F)c4)ccc3C)cnc2[nH]1 [OR0890]	≥ 50%
CC(=O)c1cc2cc(NCc3cccc(C(=O)Nc4cccnc4)c3)cnc2[nH]1 [OR0917]	≥ 50%
CC(=O)c1cc2cc(NCc3cc(NC(=O)c4ccc(CN5CCN(C)CC5)cc4)ccc3C)cnc2[nH]1 [OR0734]	≥ 50%

So what does the record say about inhibition at 0.1 µM for CC(=O)c1cc2cc(NCc3cc(NC(=O)c4ccc(CN5CCN(C)CC5)c(C(F)(F)F)c4)ccc3F)cnc2[nH]1 [OR0972] ?
≥ 50%

Moving on to CC(=O)c1cc2cc(NCc3cc(NC(=O)c4ccc(CN5CC[C@H](N(C)C)C5)c(C(F)(F)F)c4)ccc3F)cnc2[nH]1 [OR0971]
≥ 50%

Repeat for the following compound: CC(=O)c1cc2cc(NCc3cc(NC(=O)Cc4cccc(C(F)(F)F)c4)ccc3C)cnc2[nH]1 [OR0968]
< 50%
